- assay procedure: Neurotoxicity in ip dosed CF1 albino mouse assessed as ability to maintain equilibrium for 1 min on […] by rotarod test
- Assay type: toxicity, organism-based
- conditions: in vivo
outcome measure: TD50 at 1 min
State the value with its unit after it.

O=C1CC(c2ccccc2C(F)(F)F)C(=O)N1CCCN1CCN(c2cccc(C(F)(F)F)c2)CC1 (configuration not stated): 360 mg/kg

Now turn to the next compound.
Q: Identify measured TD50 at 1 min corresponding to "O=C1NC(=O)C(c2ccccc2)(c2ccccc2)N1"
Ans: 41.2 mg/kg

###

- System: Mus musculus
- assay procedure: Neurotoxicity in ip dosed CF1 albino mouse assessed as ability to maintain equilibrium for 1 min on […] after 4 hrs by rotarod test
- Type: toxicity, organism-based
- conditions: in vivo
outcome measure: Activity (mg/kg)
Write the value in mg/kg as a bare number.

O=C1NC(=O)C(c2ccccc2)(c2ccccc2)N1: 100
COc1ccccc1N1CCN(CN2C(=O)CC(c3ccccc3C)C2=O)CC1.Cl (centres undefined): 300
O=C1CC(c2ccccc2C(F)(F)F)C(=O)N1CN1CCN(c2cccc(Cl)c2)CC1 (centres undefined): 100
COc1ccccc1N1CCN(CCCN2C(=O)CC(c3ccccc3C(F)(F)F)C2=O)CC1 (centres undefined): 300
O=C1CC(c2ccccc2C(F)(F)F)C(=O)N1CCCN1CCN(c2cccc(Cl)c2)CC1 (centres undefined): 300
Cc1ccccc1C1CC(=O)N(CN2CCN(c3ccccc3)CC2)C1=O (centres undefined): 300
O=C1CC(c2ccccc2C(F)(F)F)C(=O)N1CCCN1CCN(c2cccc(C(F)(F)F)c2)CC1 (centres undefined): 300
COc1ccccc1N1CCN(CN2C(=O)CC(c3ccccc3C(F)(F)F)C2=O)CC1 (centres undefined): 100

Q: Identify measured Activity corresponding to O=C1CC(c2ccccc2C(F)(F)F)C(=O)N1CN1CCN(c2ccccc2F)CC1 (centres undefined)
Ans: 300
